system: HuH7 cells; assay: MTT antiproliferative (growth inhibition) assay on HuH7 cells; type: cell-based, human; conditions: Homo sapiens, Huh-7, MTT, 72 h incubation, mean and SD of 3 or more independent determinations (Tables 1-8), read-out: IC 50
READOUT KIND: IC50 (µM)

P. CS(=O)(=O)c1cccc(/C=C2/C(=O)Nc3cc(F)c(F)cc32)c1
Q. COc1ccc2c(c1)NC(=O)/C2=C/c1ccc(F)cc1
## Input Quick one: lower IC50, P or Q ? In your reply, give the label of the chosen option.
## Output Q
(Q: 5.36 µM, P: 13.9 µM)

====

test: Aqueous solubility on Multiscreen Solubility filter plates; format: physicochemical; settings: aqueous solution on Multiscreen Solubility filter plates, aqueous buffer, kinetic from dmso stock; pH 7.4, agitation time 3 h, mean of 3 determinations
READOUT KIND: solubility at 3 h (µM)

a. CNS(=O)(=O)c1cccc(/C=C2/C(=O)Nc3cc(F)ccc32)c1
b. CNS(=O)(=O)c1cccc(/C=C2/C(=O)Nc3cc(Cl)ccc32)c1
## Input Form field 'greater solubility at 3 h' accepts a or b ; which applies? In your reply, give the label of the chosen option.
## Output a
